Recorded inhibition, one value per entry.
system: Fibroblast growth factor receptor 3 (Homo sapiens), P22607 [S249C]; experiment: Antagonist activity against FGFR3 Ser249Cys mutant in human TCC97-7 cells cultured in serum-supplemented medium assessed as reduction in ATP content at 10 um after 3 days by cell titer-Glo luminescent cell viability assay; type: cell-based
Sequence (P22607 whole entry S249C): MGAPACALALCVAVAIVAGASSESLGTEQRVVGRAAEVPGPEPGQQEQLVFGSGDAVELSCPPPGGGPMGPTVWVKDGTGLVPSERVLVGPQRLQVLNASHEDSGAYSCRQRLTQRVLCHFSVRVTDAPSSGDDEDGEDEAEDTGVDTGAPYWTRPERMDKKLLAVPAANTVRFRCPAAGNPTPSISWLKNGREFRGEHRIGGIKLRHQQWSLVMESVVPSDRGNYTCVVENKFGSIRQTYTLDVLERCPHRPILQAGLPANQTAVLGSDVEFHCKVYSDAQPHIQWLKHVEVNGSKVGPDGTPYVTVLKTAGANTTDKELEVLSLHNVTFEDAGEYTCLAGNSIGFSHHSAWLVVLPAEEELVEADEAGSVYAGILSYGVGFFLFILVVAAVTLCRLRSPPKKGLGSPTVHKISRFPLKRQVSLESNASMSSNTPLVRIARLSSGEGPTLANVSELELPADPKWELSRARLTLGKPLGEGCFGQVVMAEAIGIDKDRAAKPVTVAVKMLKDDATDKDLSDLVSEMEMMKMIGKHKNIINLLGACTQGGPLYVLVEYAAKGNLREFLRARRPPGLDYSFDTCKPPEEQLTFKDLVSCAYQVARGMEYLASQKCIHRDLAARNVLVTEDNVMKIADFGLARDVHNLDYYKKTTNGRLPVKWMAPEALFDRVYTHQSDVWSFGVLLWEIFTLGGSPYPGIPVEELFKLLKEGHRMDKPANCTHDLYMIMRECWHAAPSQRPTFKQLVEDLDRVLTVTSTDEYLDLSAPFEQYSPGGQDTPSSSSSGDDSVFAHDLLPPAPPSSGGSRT
readout.kind: inhibition (%)

mol | target.or.system | units | endpoint.value
O=c1[nH]c2ccc(-c3cc(C(F)(F)F)c4c(-c5ccccc5)n[nH]c4n3)cc2[nH]1 | Fibroblast growth factor receptor 3 (Homo sapiens), P22607 [S249C] | % | 19
Cn1nc(-c2ccccc2)c2c(C(F)(F)F)cc(-c3cccc(C(N)=O)c3)nc21 | Fibroblast growth factor receptor 3 (Homo sapiens), P22607 [S249C] | % | 41.1
Cn1nc(-c2ccccc2)c2c(C(F)(F)F)cc(-c3ccc(C(=O)O)cc3)nc21 | Fibroblast growth factor receptor 3 (Homo sapiens), P22607 [S249C] | % | 40
O=C(c1cccc(-c2cc(C(F)F)c3c(-c4ccccc4)n[nH]c3n2)c1)N1CCCC1 | Fibroblast growth factor receptor 3 (Homo sapiens), P22607 [S249C] | % | 90.5
